Where do these numbers come from? They come from patent EP4772193A1.

Biological target: T1, recombinant human soluble gpNMB (recombinant human gpNMB-FLAG-His) (human, UniProt Q14956 23-498)
T1 sequence: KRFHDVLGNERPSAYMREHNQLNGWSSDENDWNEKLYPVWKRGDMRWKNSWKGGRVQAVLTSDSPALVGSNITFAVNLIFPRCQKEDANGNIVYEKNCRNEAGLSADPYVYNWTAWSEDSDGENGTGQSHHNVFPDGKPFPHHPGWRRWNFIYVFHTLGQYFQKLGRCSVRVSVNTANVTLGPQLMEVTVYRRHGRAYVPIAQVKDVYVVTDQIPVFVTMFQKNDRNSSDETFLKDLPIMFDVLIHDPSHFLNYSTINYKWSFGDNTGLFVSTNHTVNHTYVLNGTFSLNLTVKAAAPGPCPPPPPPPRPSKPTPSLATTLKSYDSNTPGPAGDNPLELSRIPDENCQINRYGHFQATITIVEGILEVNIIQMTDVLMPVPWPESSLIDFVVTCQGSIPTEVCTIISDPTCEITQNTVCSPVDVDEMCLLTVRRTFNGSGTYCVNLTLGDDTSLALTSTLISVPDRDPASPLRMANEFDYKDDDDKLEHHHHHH
Assay: antigen ELISA
pEC50: −log10 of the molar value.
Here the recorded pEC50 is given for each entry.
Parameter: pEC50

Binder	Number
hGPN18-2_H2L3 VH V33A (antibody, V domains shown) VH: QVQLVQSGPGLVQPTQTLTLTCSFSGFSLSTSAMGVGWIRQPSGKGLEWLADIWWDDDKDYNPSLKSRLTISKDTSKNQVVLTMTNMDTVDTATYYCARTYYSNYEYYGMDYWGQGTLVTVSS VL: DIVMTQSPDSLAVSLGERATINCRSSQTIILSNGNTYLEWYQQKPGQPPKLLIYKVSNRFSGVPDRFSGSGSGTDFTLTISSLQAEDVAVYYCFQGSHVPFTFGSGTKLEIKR	8.05
hGPN18-2_H2L3 VH L29A (antibody, V domains shown) VH: QVQLVQSGPGLVQPTQTLTLTCSFSGFSASTSVMGVGWIRQPSGKGLEWLADIWWDDDKDYNPSLKSRLTISKDTSKNQVVLTMTNMDTVDTATYYCARTYYSNYEYYGMDYWGQGTLVTVSS VL: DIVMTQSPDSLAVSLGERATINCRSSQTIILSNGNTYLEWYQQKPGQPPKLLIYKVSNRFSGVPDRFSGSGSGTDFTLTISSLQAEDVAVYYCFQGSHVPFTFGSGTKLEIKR	8.36
hGPN18-2_H2L3 VH S30A (antibody, V domains shown) VH: QVQLVQSGPGLVQPTQTLTLTCSFSGFSLATSVMGVGWIRQPSGKGLEWLADIWWDDDKDYNPSLKSRLTISKDTSKNQVVLTMTNMDTVDTATYYCARTYYSNYEYYGMDYWGQGTLVTVSS VL: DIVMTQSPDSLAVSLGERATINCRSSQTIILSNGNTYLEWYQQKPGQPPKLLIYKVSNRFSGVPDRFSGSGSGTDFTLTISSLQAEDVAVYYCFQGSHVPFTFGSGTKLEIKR	8.18
